tested on: HCT116 (colorectal carcinoma); experiment: Cytotoxic MTS assay, HCT116; assay type: cell-based, human
Metric name: IC50 (µM)
// units = µM; emit number, no label

Here's what some known entries look like.
INSERT INTO measurements (compound, test_target, metric_name, reading_unit, numeric_readout) VALUES
  ('Cc1ccc([N+](=O)[O-])c(C(=O)OCCCS(=O)(=O)c2cc[n+]([O-])c3cc(Cl)ccc23)c1 [Compound 80]', 'HCT116 (colorectal carcinoma)', 'IC50', 'µM', 4.61),
  ('COc1cccc(C(=O)OCCS(=O)(=O)c2cc[n+]([O-])c3cc(Cl)ccc23)c1OC [Compound 64]', 'HCT116 (colorectal carcinoma)', 'IC50', 'µM', 8.18),
  ('COc1ccccc1C(=O)OCCS(=O)(=O)c1cc[n+]([O-])c2cc(Cl)ccc12 [Compound 68]', 'HCT116 (colorectal carcinoma)', 'IC50', 'µM', 5.25);

Next compound, IC50 to be filled in.
compound Cc1ccc([N+](=O)[O-])c(C(=O)OCCS(=O)(=O)c2cc[n+]([O-])c3cc(Cl)ccc23)c1 [Compound 70] , IC50 observed: 11.5

----------
test system: CCRF-CEM lymphoblasts; assay: Cell cycle and apoptosis analysis (propidium iodide flow cytometry); assay type: cell-based, human; conditions: 24 h, 5 × IC50 (second value of cell)
Label satisfied when >G2/M, % of Total Cellular Populations < 10%; otherwise not satisfied.

Recorded results for 3 compounds are shown here.
INSERT INTO results (compound_structure, test_target, group_label) VALUES
  ('COc1ccccc1C(=O)OCCS(=O)(=O)c1cc[n+]([O-])c2cc(Cl)ccc12', 'CCRF-CEM lymphoblasts', 'satisfied'),
  ('COc1cc(OC)c(C(=O)OCCS(=O)(=O)c2cc[n+]([O-])c3cc(Cl)ccc23)cc1OC', 'CCRF-CEM lymphoblasts', 'not satisfied'),
  ('Cc1ccc([N+](=O)[O-])c(C(=O)OCCS(=O)(=O)c2cc[n+]([O-])c3cc(Cl)ccc23)c1', 'CCRF-CEM lymphoblasts', 'not satisfied');

State whether 10% exceeds >G2/M, % of Total Cellular Populations recorded for COc1ccc(C(=O)OCCS(=O)(=O)c2cc[n+]([O-])c3cc(Cl)ccc23)cc1 .
not satisfied

----------
test system: K562 (chronic myeloid leukemia); assay: Cytotoxic MTS assay, K562; format: cell-based, human
Metric name: IC50 (µM)
// units = µM; emit number, no label

Here's what some known entries look like.
INSERT INTO measurements (compound_structure, test_target, numeric_readout) VALUES
  ('COc1cccc(C(=O)OCCS(=O)(=O)c2cc[n+]([O-])c3cc(Cl)ccc23)c1OC', 'K562 (chronic myeloid leukemia)', 5.51),
  ('COc1ccc(C(=O)OCCS(=O)(=O)c2cc[n+]([O-])c3cc(Cl)ccc23)cc1', 'K562 (chronic myeloid leukemia)', 5.38),
  ('O=C(OCCS(=O)(=O)c1cc[n+]([O-])c2cc(Cl)ccc12)c1ccc(C(F)(F)F)cc1', 'K562 (chronic myeloid leukemia)', 3.02);

compound COc1cccc(C(=O)OCCCS(=O)(=O)c2cc[n+]([O-])c3cc(Cl)ccc23)c1OC , IC50 observed: 2.71

----------
tested on: A549 (lung adenocarcinoma); test: Cytotoxic MTS assay, A549; format: cell-based, human; conditions: Homo sapiens, A549; MTS, 72 h of incubation; read-out: Cytotoxic activity IC50, A549
Label yes (1) when IC50 < 20 µM; otherwise no (0).

Recorded results for 7 molecules are shown here.
INSERT INTO assay_data (molecule, group_label) VALUES
  ('COc1ccc(C(=O)OCCC[S+]([O-])c2ccnc3cc(Cl)ccc23)cc1 (centres unmarked) [Compound 53]', 'no (0)'),
  ('[O-][S+](CCO)c1ccnc2cc(Cl)ccc12 (centres unmarked) [Compound 41]', 'no (0)'),
  ('Cc1cc(C)cc(C(=O)OCCC[S+]([O-])c2ccnc3cc(Cl)ccc23)c1 (centres unmarked) [Compound 61]', 'yes (1)'),
  ('Cc1cc(C)cc(C(=O)OCC[S+]([O-])c2ccnc3cc(Cl)ccc23)c1 (centres unmarked) [Compound 50]', 'no (0)'),
  ('O=C(OCCC[S+]([O-])c1ccnc2cc(Cl)ccc12)c1ccc(C(F)(F)F)cc1 (centres unmarked) [Compound 62]', 'no (0)'),
  ('Cc1ccc([N+](=O)[O-])c(C(=O)OCCC[S+]([O-])c2ccnc3cc(Cl)ccc23)c1 (centres unmarked) [Compound 60]', 'yes (1)'),
  ('COc1ccccc1C(=O)OCC[S+]([O-])c1ccnc2cc(Cl)ccc12 (centres unmarked) [Compound 47]', 'no (0)');

Shift focus to the following entry.
State whether 20 µM exceeds IC50 recorded for COc1cccc(C(=O)OCCC[S+]([O-])c2ccnc3cc(Cl)ccc23)c1OC (centres unmarked) [Compound 54] .
no (0)

----------
tested on: CCRF-CEM lymphoblasts; test: BrU incorporation analysis (RNA synthesis); format: cell-based, human; conditions: 24 h, 1 × IC50 (first value of cell)
Metric name: RNA Synthesis (% positive of cells)
Please format your answer as a value with the unit trailing.

INSERT INTO assay_data (compound_structure, result) VALUES
  ('COc1ccc(OC)c(C(=O)OCCS(=O)(=O)c2cc[n+]([O-])c3cc(Cl)ccc23)c1', '36.04%'),
  ('Cc1ccc([N+](=O)[O-])c(C(=O)OCCS(=O)(=O)c2cc[n+]([O-])c3cc(Cl)ccc23)c1', '35.28%'),
  ('O=C(OCCS(=O)(=O)c1cc[n+]([O-])c2cc(Cl)ccc12)c1ccc(C(F)(F)F)cc1', '21.64%');

molecule COc1cc(OC)c(C(=O)OCCS(=O)(=O)c2cc[n+]([O-])c3cc(Cl)ccc23)cc1OC , RNA Synthesis (% positive of cells) observed: 29.44%

molecule COc1ccc(C(=O)OCCS(=O)(=O)c2cc[n+]([O-])c3cc(Cl)ccc23)cc1[N+](=O)[O-] , RNA Synthesis (% positive of cells) observed: 31.54%

molecule COc1ccccc1C(=O)OCCS(=O)(=O)c1cc[n+]([O-])c2cc(Cl)ccc12 , RNA Synthesis (% positive of cells) observed: 37.4%

molecule COc1ccc(C(=O)OCCS(=O)(=O)c2cc[n+]([O-])c3cc(Cl)ccc23)cc1 , RNA Synthesis (% positive of cells) observed: 35.01%

----------
Property: pIC50; scope: individual compounds
tested on: K562-TAX (chronic myeloid leukemia paclitaxel-resistant subline); assay: Cytotoxic MTS assay, K562-TAX; type: cell-based, human
Hey, just a heads up that pIC50 is the negative log base 10 of the concentration in molar.

INSERT INTO measurements (compound_structure, numeric_readout) VALUES
  ('COc1cccc(C(=O)OCCCS(=O)(=O)c2cc[n+]([O-])c3cc(Cl)ccc23)c1OC', 5.31);

I looked up COc1ccc(C(=O)OCCS(=O)(=O)c2cc[n+]([O-])c3cc(Cl)ccc23)cc1[N+](=O)[O-] and its pIC50 for K562-TAX (chronic myeloid leukemia paclitaxel-resistant subline) was 5.14

I looked up O=C(OCCS(=O)(=O)c1cc[n+]([O-])c2cc(Cl)ccc12)c1ccc(C(F)(F)F)cc1 and its pIC50 for K562-TAX (chronic myeloid leukemia paclitaxel-resistant subline) was 5.22

----------
system: CEM-DNR bulk (daunorubicin-resistant subline of CCRF-CEM cells); test: Cytotoxic MTS assay, CEM-DNR; assay type: cell-based, human
Property: IC50; scope: individual compounds
// units = µM; emit number, no label

Here's what some known entries look like.
INSERT INTO results (compound, numeric_readout) VALUES
  ('Cc1cc(C)cc(C(=O)OCCCS(=O)(=O)c2cc[n+]([O-])c3cc(Cl)ccc23)c1 [Compound 81]', 6.63),
  ('Cc1ccc([N+](=O)[O-])c(C(=O)OCCCS(=O)(=O)c2cc[n+]([O-])c3cc(Cl)ccc23)c1 [Compound 80]', 6.78),
  ('COc1ccc(C(=O)OCCS(=O)(=O)c2cc[n+]([O-])c3cc(Cl)ccc23)cc1 [Compound 63]', 8.74),
  ('COc1ccc(OC)c(C(=O)OCCCS(=O)(=O)c2cc[n+]([O-])c3cc(Cl)ccc23)c1 [Compound 75]', 7.22),
  ('COc1cccc(C(=O)OCCS(=O)(=O)c2cc[n+]([O-])c3cc(Cl)ccc23)c1OC [Compound 64]', 8.99),
  ('COc1ccc(C(=O)OCCCS(=O)(=O)c2cc[n+]([O-])c3cc(Cl)ccc23)cc1 [Compound 73]', 4.7),
  ('Cc1ccc([N+](=O)[O-])c(C(=O)OCCS(=O)(=O)c2cc[n+]([O-])c3cc(Cl)ccc23)c1 [Compound 70]', 17.4),
  ('O=C(OCCS(=O)(=O)c1cc[n+]([O-])c2cc(Cl)ccc12)c1ccc(C(F)(F)F)cc1 [Compound 72]', 25.2),
  ('COc1cc(OC)c(C(=O)OCCS(=O)(=O)c2cc[n+]([O-])c3cc(Cl)ccc23)cc1OC [Compound 66]', 8.03),
  ('COc1ccc(OC)c(C(=O)OCCS(=O)(=O)c2cc[n+]([O-])c3cc(Cl)ccc23)c1 [Compound 65]', 8.97);

I looked up COc1cc(C(=O)OCCCS(=O)(=O)c2cc[n+]([O-])c3cc(Cl)ccc23)cc(OC)c1OC [Compound 77] and its IC50 for CEM-DNR bulk (daunorubicin-resistant subline of CCRF-CEM cells) was 12

I looked up COc1ccc(C(=O)OCCCS(=O)(=O)c2cc[n+]([O-])c3cc(Cl)ccc23)cc1[N+](=O)[O-] [Compound 79] and its IC50 for CEM-DNR bulk (daunorubicin-resistant subline of CCRF-CEM cells) was 4.49

I looked up COc1cc(OC)c(C(=O)OCCCS(=O)(=O)c2cc[n+]([O-])c3cc(Cl)ccc23)cc1OC [Compound 76] and its IC50 for CEM-DNR bulk (daunorubicin-resistant subline of CCRF-CEM cells) was 18.1

I looked up COc1ccccc1C(=O)OCCCS(=O)(=O)c1cc[n+]([O-])c2cc(Cl)ccc12 [Compound 78] and its IC50 for CEM-DNR bulk (daunorubicin-resistant subline of CCRF-CEM cells) was 9.18

I looked up COc1ccccc1C(=O)OCCS(=O)(=O)c1cc[n+]([O-])c2cc(Cl)ccc12 [Compound 68] and its IC50 for CEM-DNR bulk (daunorubicin-resistant subline of CCRF-CEM cells) was 12.2

I looked up COc1cccc(C(=O)OCCCS(=O)(=O)c2cc[n+]([O-])c3cc(Cl)ccc23)c1OC [Compound 74] and its IC50 for CEM-DNR bulk (daunorubicin-resistant subline of CCRF-CEM cells) was 5.58

I looked up O=C(OCCCS(=O)(=O)c1cc[n+]([O-])c2cc(Cl)ccc12)c1ccc(C(F)(F)F)cc1 [Compound 82] and its IC50 for CEM-DNR bulk (daunorubicin-resistant subline of CCRF-CEM cells) was 3.46

I looked up COc1ccc(C(=O)OCCS(=O)(=O)c2cc[n+]([O-])c3cc(Cl)ccc23)cc1[N+](=O)[O-] [Compound 69] and its IC50 for CEM-DNR bulk (daunorubicin-resistant subline of CCRF-CEM cells) was 19.1

Cited source for all entries: paper PMC9607427
